Assay: Mouse plasma ciclopirox pharmacokinetics after 10 mg/kg IV bolus
Assay type: in vivo
Details: in vivo, iv, 10 mg/kg, Plasma Ciclopirox Concentrations
readout_label: concentration at 90 min

Cc1cc(C2CCCCC2)n(O)c(=O)c1 [Ciclopirox Olamine, reference compound]: 45.2 ng/mL

----------
Assay: Mouse plasma ciclopirox pharmacokinetics after 30 mg/kg oral dose
Type: in vivo
Conditions: mouse, in vivo, po, 30 mg/kg
readout_label: AUC (ng·h/mL)

Cc1cc(C2CCCCC2)n(O)c(=O)c1 [Ciclopirox Olamine, reference compound]: 956

----------
Assay: Mouse plasma ciclopirox pharmacokinetics after 30 mg/kg oral dose
Type: in vivo
Settings: mouse, in vivo, po, 30 mg/kg, Plasma Ciclopirox Concentrations, Mean
readout_label: concentration at 240 min (ng/mL)

Cc1cc(C2CCCCC2)n(O)c(=O)c1 [Ciclopirox Olamine, reference compound]: 74.7

----------
Assay: Mouse plasma ciclopirox pharmacokinetics after 10 mg/kg IV bolus
Format: in vivo
Settings: in vivo, iv, 10 mg/kg, Plasma Ciclopirox Concentrations, Mean
readout_label: concentration at 5 min (ng/mL)

Cc1cc(C2CCCCC2)n(O)c(=O)c1 [Ciclopirox Olamine, reference compound]: 4880

----------
Assay: Mouse plasma ciclopirox pharmacokinetics after 10 mg/kg IV bolus
Assay type: in vivo
Settings: in vivo, iv, 10 mg/kg, Beta Half-life
readout_label: half-life (min)

Cc1cc(C2CCCCC2)n(O)c(=O)c1 [Ciclopirox Olamine, reference compound]: 57.4

----------
Assay: Mouse plasma ciclopirox pharmacokinetics after 30 mg/kg oral dose
Format: in vivo
Settings: mouse, in vivo, po, 30 mg/kg
readout_label: CL/F (L/h/kg)

Cc1cc(C2CCCCC2)n(O)c(=O)c1 [Ciclopirox Olamine, reference compound]: 24.3

----------
Test: Mouse plasma ciclopirox pharmacokinetics after 10 mg/kg IV bolus
Type: in vivo
Conditions: in vivo, iv, 10 mg/kg, Plasma Ciclopirox Concentrations, Mean
readout_label: concentration at 90 min (ng/mL)

Cc1cc(C2CCCCC2)n(O)c(=O)c1 [Ciclopirox Olamine, reference compound]: 58.7

----------
Experiment: Mouse plasma ciclopirox pharmacokinetics after 10 mg/kg IV bolus
Type: in vivo
Conditions: in vivo, iv, 10 mg/kg, Plasma Ciclopirox Concentrations, Mean
readout_label: concentration at 180 min (µg/mL)

Cc1cc(C2CCCCC2)n(O)c(=O)c1 [Ciclopirox Olamine, reference compound]: 0.0252

----------
Assay: Mouse plasma ciclopirox pharmacokinetics after 10 mg/kg IV bolus
Assay type: in vivo
Settings: in vivo, iv, 10 mg/kg, Plasma Ciclopirox Concentrations, Mean
readout_label: concentration at 240 min

Cc1cc(C2CCCCC2)n(O)c(=O)c1 [Ciclopirox Olamine, reference compound]: 15.9 ng/mL

----------
Experiment: Mouse plasma ciclopirox pharmacokinetics after 10 mg/kg IV bolus
Assay type: in vivo
Settings: in vivo, iv, 10 mg/kg, Plasma Ciclopirox Concentrations
readout_label: concentration at 60 min (ng/mL)

Cc1cc(C2CCCCC2)n(O)c(=O)c1 [Ciclopirox Olamine, reference compound]: 171

----------
Test: Mouse plasma ciclopirox pharmacokinetics after 10 mg/kg IV bolus
Type: in vivo
Details: in vivo, iv, 10 mg/kg
readout_label: clearance (mL/min/kg)

Cc1cc(C2CCCCC2)n(O)c(=O)c1 [Ciclopirox Olamine, reference compound]: 55.2

----------
Test: Mouse plasma ciclopirox pharmacokinetics after 30 mg/kg oral dose
Format: in vivo
Conditions: mouse, in vivo, po, 30 mg/kg, Plasma Ciclopirox Concentrations, Mean
readout_label: concentration at 120 min (ng/mL)

Cc1cc(C2CCCCC2)n(O)c(=O)c1 [Ciclopirox Olamine, reference compound]: 151
